# System: OVCAR-8 ovarian
# Experiment summary: NCI-60 one-dose screen, 48 h (100 = growth as untreated, 0 = no growth, -100 = all killed)
# Experimental conditions: 10 µM unless noted
This is part of a sample that, as a whole, favours compounds with a hit. Of some 83,000 tested, about 20% had one in any assay.
Decision: growth compared against 90%; not below it gives t, below it gives f.

[
  {
    "Molecule": "CN(C)c1ccc(/C=N/Nc2nc(N/N=C/c3ccc(N(C)C)cc3)nc(N3CCCCC3)n2)cc1",
    "Assay system": "OVCAR-8 ovarian",
    "Category": "f"
  },
  {
    "Molecule": "O=C1[C@@H]2Cc3c([nH]c4ccccc34)[C@H](c3ccc(Cl)cc3)N2C(=O)CN1C1CCN(Cc2ccccc2)CC1",
    "Assay system": "OVCAR-8 ovarian",
    "Category": "f"
  },
  {
    "Molecule": "CC1=C(C)C(=O)C(Nc2cccc(C(F)(F)F)c2)=C(Br)C1=O",
    "Assay system": "OVCAR-8 ovarian",
    "Category": "t"
  },
  {
    "Molecule": "CCCC[n+]1ccc(SCC(=O)n2ccc3ccccc32)c2ccccc21",
    "Assay system": "OVCAR-8 ovarian",
    "Category": "t"
  },
  {
    "Molecule": "CCOC(=O)C1=C(C)NC(C)=C(C(=O)OC(C)C)C1c1cccc(C#N)c1 (stereo not given)",
    "Assay system": "OVCAR-8 ovarian",
    "Category": "t"
  },
  {
    "Molecule": "O=C(/C=C/Nc1ccc(S(=O)(=O)Nc2ncccn2)cc1)c1ccc(N=Cc2c(O)[nH]c3ccccc23)cc1",
    "Assay system": "OVCAR-8 ovarian",
    "Category": "t"
  },
  {
    "Molecule": "COc1ccc(-c2c3c(cn2Cc2cccc(OC)c2)-c2oncc2CCC3)cc1",
    "Assay system": "OVCAR-8 ovarian",
    "Category": "t"
  },
  {
    "Molecule": "COc1ccc2c(c1)c(-c1nn3cc(-c4ccncc4)nc3s1)cn2C",
    "Assay system": "OVCAR-8 ovarian",
    "Category": "f"
  },
  {
    "Molecule": "COc1ccc([C@@H]2C(=O)N(c3cc(OC)c(OC)c(OC)c3)[C@H]2c2ccc(OC)c(O)c2)cc1",
    "Assay system": "OVCAR-8 ovarian",
    "Category": "f"
  },
  {
    "Molecule": "COc1ccc(CC(C)=C(c2ccc(OCCN3CCCC3)cc2)c2ccc(OCCN3CCCC3)cc2)cc1",
    "Assay system": "OVCAR-8 ovarian",
    "Category": "f"
  },
  {
    "Molecule": "CCC(=C(c1ccc(OCCN2CCCCCC2)cc1)c1ccc(OCCN2CCCCCC2)cc1)c1ccc(Cl)cc1",
    "Assay system": "OVCAR-8 ovarian",
    "Category": "f"
  },
  {
    "Molecule": "Fc1cc(F)cc(NNC(=S)c2ccccc2)c1",
    "Assay system": "OVCAR-8 ovarian",
    "Category": "f"
  },
  {
    "Molecule": "COC(=O)c1cccc(NC2=C(Cl)C(=O)C(C)=C(C)C2=O)c1",
    "Assay system": "OVCAR-8 ovarian",
    "Category": "t"
  },
  {
    "Molecule": "O=C(COc1ccc(/C=C2\\C(=O)Nc3cc(Cl)ccc32)cc1)Nc1ccc(Cl)cc1",
    "Assay system": "OVCAR-8 ovarian",
    "Category": "f"
  },
  {
    "Molecule": "CC(=O)Nc1nc(C)c(-c2csc(Nc3ccccc3)n2)s1",
    "Assay system": "OVCAR-8 ovarian",
    "Category": "f"
  },
  {
    "Molecule": "Cc1ccc(NC(=O)/C=C/c2ccc(OCCCOc3ccc4c(C)cc(=O)oc4c3)cc2)cc1",
    "Assay system": "OVCAR-8 ovarian",
    "Category": "f"
  },
  {
    "Molecule": "Cc1ccc2c(n1)C(=O)C(Cl)=C(Nc1cccc(C(=O)OC(C)(C)C)c1)C2=O",
    "Assay system": "OVCAR-8 ovarian",
    "Category": "f"
  },
  {
    "Molecule": "COc1cc2c3c(cc4c5c(ccc4c3c1OC)OCO5)N(CCN(C)C)C2=O",
    "Assay system": "OVCAR-8 ovarian",
    "Category": "f"
  },
  {
    "Molecule": "C=C1CCc2nc(SCC(=O)O)ccc2N1",
    "Assay system": "OVCAR-8 ovarian",
    "Category": "t"
  },
  {
    "Molecule": "O=c1nc(Nc2ccc([N+](=O)[O-])cc2O)sc2ccccc12",
    "Assay system": "OVCAR-8 ovarian",
    "Category": "f"
  },
  {
    "Molecule": "CCCCSC1=C(Cl)CN(c2ccc(Cl)cc2)C1=O",
    "Assay system": "OVCAR-8 ovarian",
    "Category": "t"
  },
  {
    "Molecule": "Cc1ccc(CSC2=C(Cl)CN(c3ccc(Cl)cc3)C2=O)cc1",
    "Assay system": "OVCAR-8 ovarian",
    "Category": "t"
  },
  {
    "Molecule": "NC(=O)n1c(=O)n(-c2cccc(C(F)(F)F)c2)c(=O)c2cc(-c3ccc(F)cc3F)ccc21",
    "Assay system": "OVCAR-8 ovarian",
    "Category": "f"
  },
  {
    "Molecule": "N#Cc1c(-c2ccc(Br)cc2)cc(-c2c[nH]c3ccccc23)nc1N",
    "Assay system": "OVCAR-8 ovarian",
    "Category": "f"
  },
  {
    "Molecule": "CS(=O)(=O)c1ccc(/C(=N/N=C(N)N)c2ccc(Cl)cc2)cc1",
    "Assay system": "OVCAR-8 ovarian",
    "Category": "t"
  },
  {
    "Molecule": "CN1CCN(c2ccc(Nc3nc(NCCCNS(=O)(=O)c4ccc(Cl)cc4)c4sccc4n3)cc2)CC1",
    "Assay system": "OVCAR-8 ovarian",
    "Category": "f"
  },
  {
    "Molecule": "Nc1nc(=O)n([C@H]2C[C@H](O)[C@@H](CO)O2)cc1C=O",
    "Assay system": "OVCAR-8 ovarian",
    "Category": "f"
  },
  {
    "Molecule": "Cn1cc(-c2cc3ncnc(Nc4ccc(NC(=O)Nc5cc(C(C)(C)C)on5)cc4)c3s2)cn1",
    "Assay system": "OVCAR-8 ovarian",
    "Category": "f"
  },
  {
    "Molecule": "CCc1cc(OC(=O)N2CCN(CCC(C)(COC(C)(C)C)COC(C)(C)C)CC2)ccc1Nc1cc(-c2ccc(-n3cccn3)cc2)[nH]n1",
    "Assay system": "OVCAR-8 ovarian",
    "Category": "f"
  },
  {
    "Molecule": "NC(=O)c1ncn2c(=O)n(CCF)nnc12",
    "Assay system": "OVCAR-8 ovarian",
    "Category": "f"
  },
  {
    "Molecule": "O=C(CCCCCCN1CC(=O)N2[C@@H](c3ccccc3Br)c3[nH]c4ccccc4c3C[C@H]2C1=O)NO",
    "Assay system": "OVCAR-8 ovarian",
    "Category": "f"
  },
  {
    "Molecule": "Cc1ccc(Nc2nc(SC(C)C)nc(-c3ccccc3)c2C#N)cc1",
    "Assay system": "OVCAR-8 ovarian",
    "Category": "t"
  },
  {
    "Molecule": "Cc1cccc(N2CCN(C3=C(Cl)C(=O)c4ncccc4C3=O)CC2)c1",
    "Assay system": "OVCAR-8 ovarian",
    "Category": "f"
  },
  {
    "Molecule": "CSc1ccc(/C(=N/N=C(N)N)c2ccc(Cl)cc2)cc1",
    "Assay system": "OVCAR-8 ovarian",
    "Category": "f"
  },
  {
    "Molecule": "C#CCN(C)CCCOc1ccc(NCc2ccc(/C=C/C(=O)NO)cc2)cc1Cl",
    "Assay system": "OVCAR-8 ovarian",
    "Category": "f"
  },
  {
    "Molecule": "Cc1cc(Br)ccc1-n1cc(C#N)c(N)c1C(=O)c1ccc(Br)cc1",
    "Assay system": "OVCAR-8 ovarian",
    "Category": "t"
  },
  {
    "Molecule": "Clc1ccc(CSc2nnc(-c3ccc(Cl)cc3)n2-c2ccccc2)cc1",
    "Assay system": "OVCAR-8 ovarian",
    "Category": "f"
  }
]
